Reference source: patent US9422293B2

SYSTEM NAME: rat TRPV1 (Rattus norvegicus (Rat), UniProt O35433)
Sequence (O35433 whole entry): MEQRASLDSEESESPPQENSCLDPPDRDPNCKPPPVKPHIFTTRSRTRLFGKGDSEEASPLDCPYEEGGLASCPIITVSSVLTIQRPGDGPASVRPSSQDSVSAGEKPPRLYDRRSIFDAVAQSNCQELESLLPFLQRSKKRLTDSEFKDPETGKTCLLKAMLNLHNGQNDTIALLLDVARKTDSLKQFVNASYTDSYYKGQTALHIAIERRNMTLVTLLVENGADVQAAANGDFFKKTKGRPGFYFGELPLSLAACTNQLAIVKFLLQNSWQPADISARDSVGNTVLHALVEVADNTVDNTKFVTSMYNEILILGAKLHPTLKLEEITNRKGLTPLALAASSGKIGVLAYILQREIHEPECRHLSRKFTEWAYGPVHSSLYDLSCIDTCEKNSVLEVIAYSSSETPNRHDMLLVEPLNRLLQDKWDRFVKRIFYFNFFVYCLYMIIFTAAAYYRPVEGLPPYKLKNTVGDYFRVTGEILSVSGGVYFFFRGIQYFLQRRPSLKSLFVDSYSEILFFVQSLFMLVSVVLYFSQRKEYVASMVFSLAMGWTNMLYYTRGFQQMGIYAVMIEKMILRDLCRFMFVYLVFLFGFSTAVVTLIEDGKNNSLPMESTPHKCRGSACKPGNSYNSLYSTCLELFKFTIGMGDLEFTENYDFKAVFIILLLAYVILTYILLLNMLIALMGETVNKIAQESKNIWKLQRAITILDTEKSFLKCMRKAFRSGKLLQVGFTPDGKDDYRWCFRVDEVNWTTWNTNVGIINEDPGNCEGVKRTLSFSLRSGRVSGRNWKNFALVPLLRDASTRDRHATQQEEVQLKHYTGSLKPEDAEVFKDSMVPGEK
TEST CONTEXT: read-out: Rat IC50
pIC50: −log10 of the molar value. Where a name gives a salt, the structure may show the parent alone.
MEASUREMENT LABEL: pIC50

CC(C)c1nc2c(c(NCc3ccc(Cl)c(C(F)(F)F)c3)n1)CCN(c1ncccc1C(F)(F)F)CC2 : 5.42
CC(=O)c1ccc(Nc2nc(N3CCCCC3)nc3c2CCN(c2ncccc2C(F)(F)F)CC3)cc1 : 6.23
CN1CCN(c2nc3c(c(Nc4ccc(C(F)(F)F)cn4)n2)CCN(c2ncccc2C(F)(F)F)CC3)CC1 : 5.68
FC(F)(F)c1ccc(Nc2nc(SCc3ccccc3)nc3c2CCN(c2ncccc2C(F)(F)F)CC3)cc1 : 6.62
CC(C)c1nc2c(c(Nc3ccc4nsnc4c3)n1)CCN(c1ncccc1C(F)(F)F)CC2 : 5.66
Cc1cc(C(F)(F)F)ccc1Nc1nc(SCc2ccccc2)nc2c1CCN(c1ncccc1C(F)(F)F)CC2 : 5.93
OCC1CCCCN1c1nc2c(c(Nc3ccc(C(F)(F)F)cc3)n1)CCN(c1ncccc1C(F)(F)F)CC2 (centres unmarked) : 7.05
COc1ccccc1CCNc1nc(C(C)C)nc2c1CCN(c1ncccc1C(F)(F)F)CC2 : 5.92
FC(F)(F)c1ccc(Nc2nc(N3CCSCC3)nc3c2CCN(c2ncccc2C(F)(F)F)CC3)cc1 : 7.51
CN(Cc1ccco1)c1nc2c(c(Nc3ccc(C(F)(F)F)cc3)n1)CCN(c1ncccc1C(F)(F)F)CC2 [Example 216, trifluoroacetic acid salt] : 7.30
CC(C)N(C)c1nc2c(c(Nc3ccc(C(F)(F)F)nc3)n1)CCN(c1ncccc1C(F)(F)F)CC2 : 6.35

###

SYSTEM NAME: rat TRPV1 (Rattus norvegicus (Rat))
TEST CONTEXT: read-out: Rat IC50
pIC50: −log10 of the molar value. Where a name gives a salt, the structure may show the parent alone.
Group membership follows pIC50 per the scheme class 1 (below 6), class 2 (6 to below 7), class 3 (7 or more)

CSc1nc2c(c(Nc3ccc(C(F)(F)F)cn3)n1)CCN(c1ncccc1C(F)(F)F)CC2 [Example 74B, trifluoroacetic acid salt] : class 1
Cc1cc(C(F)(F)F)ccc1Nc1nc(SC2CCOC2C)nc2c1CCN(c1ncccc1C(F)(F)F)CC2 (centres unmarked) [Example 369] : class 3
Cc1nc2ccccc2nc1N1CCc2ncnc(Nc3ccc(C(C)(C)C)cc3)c2CC1 [Example 32] : class 3
Cc1cc(C(F)(F)F)ccc1Nc1nc(OC2CCOC2)nc2c1CCN(c1ncccc1C(F)(F)F)CC2 (centres unmarked) [Example 313] : class 2
CC(O)(c1ccc(Nc2nc(N3CCCCC3)nc3c2CCN(c2ncccc2C(F)(F)F)CC3)cc1)C(F)(F)F (centres unmarked) [Example 180] : class 1
CC(Oc1nc2c(c(Nc3ccc(S(=O)(=O)C(F)(F)F)cc3)n1)CCN(c1ncccc1C(F)(F)F)CC2)C1CC1 (centres unmarked) [Example 317] : class 2
FC(F)(F)c1ccc(Nc2nc(OC3CCOC3)nc3c2CCN(c2ncccc2C(F)(F)F)CC3)cc1 (centres unmarked) [Example 340] : class 2
CN(C)c1nc2c(c(NCc3ccccc3)n1)CCN(c1ncccc1C(F)(F)F)CC2 [Example 70B, trifluoroacetic acid salt] : class 1
CC1CCCN(c2nc3c(c(Nc4ccc(C(F)(F)F)cc4)n2)CCN(c2ncccc2C(F)(F)F)CC3)C1 (centres unmarked) [Example 240, trifluoroacetic acid salt] : class 3
FC(F)(F)c1ccc(Nc2nc(-c3ccsc3)nc3c2CCN(c2ncccc2C(F)(F)F)CC3)cc1 [Example 150] : class 2

###

SYSTEM NAME: rat TRPV1 (Rattus norvegicus (Rat))
TEST CONTEXT: read-out: Rat IC50
Counter-ions that a name gives are not always drawn.
MEASUREMENT LABEL: IC50 (µM)

CC(C)(O)c1ccc(Nc2nc(N3CCCCC3)nc3c2CCN(c2ncccc2C(F)(F)F)CC3)cc1 : 0.09
CC(C)c1nc2c(c(Nc3ccc(C(F)(F)F)cc3)n1)CCN(c1ncccc1N)CC2 : 0.85
CC(C)(CO)c1ccc(Nc2nc(N3CCCCC3)nc3c2CCN(c2ncccc2C(F)(F)F)CC3)cc1 : 0.16
COCc1nc2c(c(Nc3ccc(C(C)(C)C#N)cc3)n1)CCN(c1ncccc1C(F)(F)F)CC2 [Example 347, trifluoroacetic acid salt] : 1.32
